# Test system: UACC-257 melanoma
# Protocol details: NCI tumour cell line growth inhibition, 48 h
Attribute measured: GI50

INSERT INTO measurements (compound, system_under_test, meas_value) VALUES
  ('CCCCCCCCn1ccc2cc(NC(=O)Cn3cc(CN4CCN(CC)CC4)nn3)ccc21', 'UACC-257 melanoma', '1.83 µM'),
  ('Cn1cc(C2=C(n3ccc4ccccc43)C(=O)NC2=O)c2ccccc21', 'UACC-257 melanoma', '> 25 µM'),
  ('COc1ccc2c(c1OC)C(=O)OC2C1c2c(c(N)c3c(c2OC)OCO3)CCN1C (stereo not drawn)', 'UACC-257 melanoma', '27.3 µM');
